value.kind: melting point (°C)

# structure.as.smiles, melting point, °C
records = [
    ("Nc1nc2c([nH]1)c(=O)n(CC1CCCC1)c(=O)n2CC1CCCC1", 300),
]

(a) O=c1c2[nH]c([N+](=O)[O-])nc2n(CC2CCCCC2)c(=O)n1CC1CCCCC1
(b) O=c1c2[nH]c([N+](=O)[O-])nc2n(CC2CCC2)c(=O)n1CC1CCC1
(c) CCCCn1c(=O)c2[nH]c(N)nc2n(CCCC)c1=O
Could you please sort these 3 entries by melting point from high to low? Returns: the labels listed in the requested order.
b, a, c

###

# study.target: c-AMP phosphodiesterase (erythrocytes)
# test.method.notes: Inhibition of cyclic AMP phosphodiesterase (erythrocyte extract, radiochemical procedure)
# assay.context: phosphodiesterase extracted from erythrocytes
value.kind: Ki (µM)

Solved entries (count: 5):
# molecule, value.kind, readout.value
rows = [
    ("O=c1c2[nH]c(N3CCOCC3)nc2n(CC2CC2)c(=O)n1CC1CC1", "Ki", 11.5),
    ("O=c1c2[nH]c(Br)nc2n(CC2CCCCC2)c(=O)n1CC1CCCCC1", "Ki", 7.9),
    ("O=c1c2[nH]c([N+](=O)[O-])nc2n(CC2CCCC2)c(=O)n1CC1CCCC1", "Ki", 4.8),
    ("Nc1nc2c([nH]1)c(=O)n(CC1CCCC1)c(=O)n2CC1CCCC1", "Ki", 0.57),
    ("O=c1c2[nH]c([N+](=O)[O-])nc2n(CC2CCCCC2)c(=O)n1CC1CCCCC1", "Ki", 5.4),
]

(I) Nc1nc2c([nH]1)c(=O)n(C1CC1)c(=O)n2C1CC1
(II) O=c1c2[nH]c([N+](=O)[O-])nc2n(CC2CCC2)c(=O)n1CC1CCC1
Could you determine which record has the numerically smaller Ki? Candidates: I and II Refer to your chosen entry by its label in the reply.
II
(II: 6.1 µM, I: 14 µM)

(1) CCCCn1c(=O)c2[nH]c([N+](=O)[O-])nc2n(CCCC)c1=O
(2) Nc1nc2c([nH]1)c(=O)n(CC1CCC1)c(=O)n2CC1CCC1
// select label with min value of measured Ki from [ 1 , 2 ] Reply briefly: the label of your chosen item.
2
(2: 0.53 µM, 1: 17 µM)

###

# study.target: c-AMP phosphodiesterase (erythrocytes)
# test.method.notes: Inhibition of cyclic AMP phosphodiesterase (erythrocyte extract, radiochemical procedure)
# assay.context: phosphodiesterase extracted from erythrocytes
# Procedure: a) Inhibition of Cyclic AMP Phosphodiesterase The phosphodiesterase was extracted by mixing the erythrocytes with 4 volumes of 7 mM phosphate buffer, pH7.4, followed by sonification (3×10 sec; 100 W) and then centrifuging for 30 min at 4200×g. All supernatants were diluted in the extraction medium and assayed for phosphodiesterase activity within 6 hours of preparation, using the radiochemical procedure described in the above mentioned reference.
pKi: −log10 of the molar value.
value.kind: pKi

# compound, pKi
records = [
    ("O=c1c2[nH]c(Cl)nc2n(CC2CC2)c(=O)n1CC1CC1 [Example 17]", 4.82),
    ("O=c1c2[nH]c(Cl)nc2n(C2CCCCC2)c(=O)n1C1CCCCC1 [Example 18, 1,3-Di-cyclohexyl-8-chloro xanthine]", 4.64),
    ("Nc1nc2c([nH]1)c(=O)n(CC1CC1)c(=O)n2CC1CC1 [Example 9]", 5.80),
]

(P) O=c1c2[nH]c([N+](=O)[O-])nc2n(CC2CC2)c(=O)n1CC1CC1 [Example 2]
(Q) CCCCn1c(=O)c2[nH]c(N)nc2n(CCCC)c1=O.Cl [Example 7, hydrochloride]
Which item exceeds the other in pKi, P or Q ? # answer = label of selected item
Q
